study target: HIV Env of isolate PVO.4 (clade B) (HIV)
procedure details: cell-based or functional assay
# Lookup of reported IC50 (µg/ml) with constrains keyed by entry
Could you give me the number in µg/mL? Just the number is fine.

For orientation, consider the following solved cases.
{"binder": "PGDM1400 (antibody, V domains shown) VH: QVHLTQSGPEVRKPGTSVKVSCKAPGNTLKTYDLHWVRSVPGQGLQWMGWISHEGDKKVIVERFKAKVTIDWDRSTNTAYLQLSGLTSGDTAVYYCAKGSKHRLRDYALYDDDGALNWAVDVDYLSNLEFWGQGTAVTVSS VL: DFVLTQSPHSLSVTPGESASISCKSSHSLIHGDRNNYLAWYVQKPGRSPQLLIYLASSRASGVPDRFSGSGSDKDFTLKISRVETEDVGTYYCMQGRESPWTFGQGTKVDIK", "quantitative readout": 3.41}
{"binder": "ePGDM13 (antibody, V domains shown) VH: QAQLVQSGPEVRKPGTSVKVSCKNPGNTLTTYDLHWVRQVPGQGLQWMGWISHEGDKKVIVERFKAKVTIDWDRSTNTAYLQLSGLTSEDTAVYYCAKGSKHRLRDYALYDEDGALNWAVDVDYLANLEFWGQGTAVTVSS VL: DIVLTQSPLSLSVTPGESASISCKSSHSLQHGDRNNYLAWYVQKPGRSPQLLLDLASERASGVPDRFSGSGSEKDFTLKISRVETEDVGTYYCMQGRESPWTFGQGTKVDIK", "quantitative readout": 2.95}
{"binder": "ePGDM9 (antibody, V domains shown) VH: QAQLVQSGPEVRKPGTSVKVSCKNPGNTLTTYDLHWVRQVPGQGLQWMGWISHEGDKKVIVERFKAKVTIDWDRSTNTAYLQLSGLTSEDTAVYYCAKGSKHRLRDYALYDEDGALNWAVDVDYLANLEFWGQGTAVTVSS VL: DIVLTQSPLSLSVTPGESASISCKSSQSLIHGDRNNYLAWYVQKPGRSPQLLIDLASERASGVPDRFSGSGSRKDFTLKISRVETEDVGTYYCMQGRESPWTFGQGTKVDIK", "quantitative readout": 1.93}

Prompt: Please list IC50 (µg/ml) with constrains recorded for the binder ePGDM5 (antibody, V domains shown) VH: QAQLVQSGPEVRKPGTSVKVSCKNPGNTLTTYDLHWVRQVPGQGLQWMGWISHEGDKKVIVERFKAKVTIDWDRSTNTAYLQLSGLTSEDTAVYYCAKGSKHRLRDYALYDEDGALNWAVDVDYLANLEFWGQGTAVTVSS VL: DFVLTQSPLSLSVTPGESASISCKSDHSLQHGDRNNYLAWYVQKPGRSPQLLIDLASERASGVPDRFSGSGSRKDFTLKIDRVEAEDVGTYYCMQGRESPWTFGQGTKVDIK
Completion: 1.39

Numbers sourced from patent US20230134571A1.
